# TARGET OR SYSTEM: Prostaglandin E2 receptor EP4 subtype (Homo sapiens, UniProt P35408)
# Sequence (P35408 whole entry): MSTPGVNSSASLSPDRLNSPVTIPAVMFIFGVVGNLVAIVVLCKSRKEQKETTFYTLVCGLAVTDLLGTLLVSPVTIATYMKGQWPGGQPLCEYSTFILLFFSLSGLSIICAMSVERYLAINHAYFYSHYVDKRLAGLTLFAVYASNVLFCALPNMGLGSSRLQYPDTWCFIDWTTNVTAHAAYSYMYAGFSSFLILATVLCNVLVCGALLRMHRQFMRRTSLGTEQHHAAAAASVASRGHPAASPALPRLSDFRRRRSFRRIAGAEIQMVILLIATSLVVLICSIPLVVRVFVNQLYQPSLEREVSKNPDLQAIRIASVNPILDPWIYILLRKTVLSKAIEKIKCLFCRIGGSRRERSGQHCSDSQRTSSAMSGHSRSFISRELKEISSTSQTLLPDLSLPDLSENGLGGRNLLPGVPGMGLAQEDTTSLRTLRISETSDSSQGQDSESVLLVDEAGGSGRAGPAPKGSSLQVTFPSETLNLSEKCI
# ASSAY SUMMARY: hEP4 cAMP Assay
pIC50: −log10 of the molar value.
OUTCOME MEASURE: pIC50

>>> reading("CCOc1cc(-c2cc(NCCc3ccc4scc(Cl)c4c3)ncn2)ccc1CC(=O)O")
7.37
>>> reading("CCCc1cc(-c2cc(NCCc3cc(F)c4sccc4c3)ncn2)ccc1C(=O)O")
7.24
>>> reading("CCOc1cc(-c2cc(NCCc3cc4ccccc4cc3NC)ncn2)ccc1OCC(=O)O")
6.34
>>> reading("COc1c(CCNc2cc(-c3ccc(CC(=O)O)c(CC(C)C)c3)ncn2)cc2ccsc2c1F")
6.77
>>> reading("COc1cc(-c2cc(NCCc3ccc4sccc4c3F)ncn2)ccc1OCCC(=O)O")
7.43
>>> reading("CC(C)Cc1cc(-c2cc(NCCc3ccc4sccc4c3F)ncn2)ccc1CC(=O)O")
7.06
>>> reading("CCCOc1cc(-c2cc(NCCc3cc4ccsc4cc3OC)ncn2)ccc1CC(=O)O")
6.95
>>> reading("CCOc1cc(-c2cc(NCCc3cc(F)c4sccc4c3)ncn2)ccc1C(=O)O")
7.17
>>> reading("COc1cc2c(c(C)c1CCNc1cc(-c3ccc(C(=O)O)c(OC4CCC4)c3)ncn1)OCCO2")
7.70
>>> reading("COc1cc2ccccc2c(C)c1CCNc1cc(-c2ccc(CC(=O)O)c(OC(F)F)c2)ncn1")
7.37
>>> reading("CCOc1cc(-c2cc(NCCc3cc(F)c4sccc4c3)ncn2)ccc1CC(=O)O")
7.46
>>> reading("CCOc1cc(-c2cc(NCCc3ccc4sccc4c3F)ncn2)ccc1CC(=O)O")
7.43
>>> reading("O=C(O)c1ccc(-c2cc(NCCc3cc(F)c4sccc4c3)ncn2)cc1OC1CC1")
7.68
>>> reading("COc1cc2c(c(C)c1CCNc1cc(-c3ccc(CC(=O)O)c(OC(F)F)c3)ncn1)OCCO2")
7.51
>>> reading("CCOc1cc(-c2cc(NCCc3ccc4sccc4c3F)ncn2)cc(F)c1CC(=O)O")
7.18

###

# TARGET OR SYSTEM: Prostaglandin E2 receptor EP2 subtype (Homo sapiens, UniProt P43116)
# Sequence (P43116 whole entry): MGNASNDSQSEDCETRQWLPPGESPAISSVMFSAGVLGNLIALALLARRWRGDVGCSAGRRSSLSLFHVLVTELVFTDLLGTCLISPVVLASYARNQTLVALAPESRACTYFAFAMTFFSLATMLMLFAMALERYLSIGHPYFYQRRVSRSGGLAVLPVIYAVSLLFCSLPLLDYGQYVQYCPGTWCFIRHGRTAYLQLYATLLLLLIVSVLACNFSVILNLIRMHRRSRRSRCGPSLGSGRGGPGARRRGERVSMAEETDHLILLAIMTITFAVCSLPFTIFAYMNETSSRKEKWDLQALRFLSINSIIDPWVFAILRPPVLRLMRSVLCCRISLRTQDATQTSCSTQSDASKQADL
# ASSAY SUMMARY: hEP2 cAMP Assay
I'd appreciate it if you marked entries Met when IC50 is lower than 0.1 µM and Not met when it is not.

>>> label("COc1cc2c(c(C)c1CCNc1cc(-c3ccc(CC(=O)O)c(OC(C)C)c3)ncn1)OCCO2 [US11839613, Example 426]")
"Met"
>>> label("COc1cc2c(c(C)c1CCNc1cc(-c3ccc(C(=O)O)c(OC(C)C)c3)ncn1)OCCO2 [US11839613, Example 432]")
"Met"
>>> label("COc1c(CCNc2cc(-c3ccc(CC(=O)O)c(CC(C)C)c3)ncn2)cc2ccsc2c1F [US11839613, Example 410]")
"Not met"
>>> label("CCOc1cc(-c2cc(NCCc3cc(C)c4sccc4c3)ncn2)sc1C(=O)O [US11839613, Example 391]")
"Not met"
>>> label("CCCc1cc(-c2cc(NCCc3ccc4sccc4c3F)ncn2)ccc1C(=O)O [US11839613, Example 378]")
"Not met"
>>> label("CCOc1cc2c(cc1CCNc1cc(-c3ccc(C(=O)O)c(CC(C)C)c3)ncn1)OCCO2 [US11839613, Example 417]")
"Met"
>>> label("CCCc1cc(-c2cc(NCCc3cc(F)c4sccc4c3)ncn2)ccc1C(=O)O [US11839613, Example 389]")
"Not met"
>>> label("CCOc1cc(-c2cc(NCCc3cc4c(cc3OC)OCCO4)ncn2)cc(F)c1CC(=O)O [US11839613, Example 373]")
"Not met"
>>> label("CCOc1cc(-c2cc(NCCc3cc4ccsc4c(F)c3OC)ncn2)ccc1CC(=O)O [US11839613, Example 406]")
"Not met"
>>> label("CCCc1cc(-c2cc(NCCc3c(OC)cc4c(c3F)OCCO4)ncn2)ccc1CC(=O)O [US11839613, Example 408]")
"Not met"
>>> label("CCCOc1cc(-c2cc(NCCc3ccc4sccc4c3F)ncn2)ccc1CC(=O)O [US11839613, Example 393]")
"Not met"
>>> label("CCCc1cc(-c2cc(NCCc3c(OC)cc4ccccc4c3C)ncn2)ccc1CC(=O)O [US11839613, Example 388]")
"Not met"
>>> label("CCOc1cc2c(cc1CCNc1cc(-c3ccc(C(=O)O)c(OC4CC4)c3)ncn1)OCCO2 [US11839613, Example 447]")
"Met"
>>> label("CC(C)Cc1cc(-c2cc(NCCc3cc(F)c4sccc4c3)ncn2)ccc1C(=O)O [US11839613, Example 414]")
"Not met"
